MEASUREMENT_KIND: melting point

// worked examples, melting point included
- Nc1ncnc2sc(Cc3ccccc3)c(-c3ccc(NS(=O)(=O)c4ccccc4)cc3)c12: 100 to 105 °C
- CN(Cc1cc(C(F)(F)F)cc(C(F)(F)F)c1)C(=O)c1c(-c2ccc(F)cc2)c2cnccc2c(=O)n1C: 136 to 138 °C
- O=C(Nc1cc2ncc(CN3CCCC3)cc2cc1F)c1ccc(Br)cc1: 119 to 121 °C
- CCOc1cc2ncc(C#N)c(Nc3ccc4cn[nH]c4c3)c2cc1OCC: 143 to 145 °C
- C=CCOc1cc(NC(C)=O)c(Cl)cc1C(=O)OC: 110 to 112 °C

Please give the documented melting point of O=C(O)COCCCC1CCCN1c1cnc(-c2ccccc2)c(-c2ccccc2)n1 (centres undefined) 137 to 139 °C

Check the records and state melting point for CCC1c2cccn2-c2ccc(F)cc2N1C(=O)c1ccc(OC)cc1OC (centres undefined) 131 to 132 °C

# return recorded melting point for input CCOC(=O)c1cn(-c2ccc(F)c(NC(C)(C)C)n2)c2c(Cl)c(F)c(F)cc2c1=O 207 to 210 °C

Quick one: give measured melting point for Cc1noc(-c2cc3c(OC[C@@H](O)CN4CCC(c5ccc6ccccc6c5)CC4)cccc3s2)n1 180 to 182 °C

----------
In this section we review reported melting point values for a set of molecules.

Solved entries (count: 4):
* Nc1cc(C(F)(F)F)ccc1-c1cc(Oc2ccc3cccnc3c2)ncn1 | 193 to 194 °C
* OCC(O)Cc1nccn1CCCc1cccc(OCc2coc(/C=C/c3ccc(F)cc3F)n2)c1 (stereo not given) | 92 to 94 °C
* O=P(O)(O)C(O)(CCc1ccc(Cl)cc1)P(=O)(O)O | 201 °C
* O=C(CC1CCCC1)c1c(-c2ccc3c(Br)c(OCc4nnn[nH]4)ccc3c2)oc2ccccc12 | 186 to 187 °C

// next item, melting point requested
Please supply the value of reported melting point for the item Cc1c(Br)c2ccccn2c1C(=O)c1ccc(N)c(C(=O)O)c1 230 °C

----------
MEASUREMENT_KIND: melting point

Example entries begin here.
• CN1CCN(S(=O)(=O)c2ccc(N3CCC(NC[C@H](O)c4ccc(O)c(NS(C)(=O)=O)c4)CC3)cc2)CC1 = 89 to 91 °C
• O=C1OC(=O)c2c1cccc2C(Cl)(Cl)Cl = 121 to 124 °C
• CC(O)C=Cc1ccc2c(c1)Cc1ccccc1-2 (centres undefined) = 153 °C
• O=C1CC(ON(Cc2ccccc2)Cc2ccccc2)C(=O)N1C1CCCCC1 (centres undefined) = 75 to 77 °C
• CC(=NOc1cccc(C(F)(F)F)c1)c1cc(Cl)ccc1NS(=O)(=O)C(F)(F)F = 63 to 64 °C

# context switch: different compound, same melting point
Item O=C1c2cc3nnn(Cc4cccc(F)c4)c(=O)c3cc2OC2CCCN12 (centres undefined) : provide melting point 183 to 185 °C

----------
Listed compounds paired with reported melting point

Previously resolved entries follow.
* C#CCSc1nc(-c2ccccc2)no1 | 39.4 °C
* CCOC(=O)c1cn(-c2nnn[nH]2)c2cc(F)c(F)cc2c1=O | 233 to 236 °C
* COc1ccc(S(=O)(=O)n2ccc3ccnc(-c4ccc(O)cc4)c32)cc1 | 179 to 182 °C
* COc1ccc(Cc2nc3n(c2Cc2ccc(OC)cc2)CCS3(=O)=O)cc1 | 231 to 232 °C
* C1CNCCN2CCNCCNCCN(CCN1)CCOCCOCC2 | 75 °C

Turning now to a further compound:
Recall and state the measured melting point for O=C(NC1CCOC(O)C1)c1ccc2nonc2c1 (stereo unspecified) . 91 to 92 °C

----------
In this section we review reported melting point values for a set of compounds.

Observe how each entry below is paired with its result.
* COc1ccc(-n2c(Br)ccc2-c2ccc(S(N)(=O)=O)cc2)cc1 | 121 to 123 °C
* N#Cc1ccc(C=Cc2ccccc2)cc1 | 119 °C
* COc1cc(C2c3cc4c(cc3C(NC3=CC(=O)N(Cc5ccc(F)cc5)C3=O)C3COC(=O)C23)OCO4)cc(OC)c1O[Si](C)(C)C(C)(C)C (stereo not given) | 182 to 184 °C
* COC(=O)C(=O)c1cc2c3c(c1)CCN3CCC2 | 102 to 105 °C

Let me know recorded melting point for CNc1cccc(OC)c1[N+](=O)[O-] , thanks. 58 to 59 °C

----------
melting point values for the compounds below.

Recorded melting point, per entry:
* CCO/N=C(/CC)c1ccc(Cl)c2nc3n(c12)CCCN3c1ccc(Cl)cc1Cl | 140 to 141 °C
* CCCCCCCC(c1cc(C)ccc1O)c1cc(C)ccc1O | 108 to 109 °C
* CN(C)Cc1nc(CSCCNC(=C[N+](=O)[O-])NC2CC2)cs1 | 128 to 132 °C
* COc1ccc(-c2cc3c(N4CCc5ccccc54)ncnc3[nH]2)cc1 | > 300 °C
* CCOc1ccc(C=CC(=O)c2c(OCC)cc(OCC)cc2OC(=O)CC)cc1 | 84.5 °C

Assign melting point to the following record: Cc1ccccc1-c1cc(=O)c2ccccc2o1 45.5 to 47.5 °C

Return reported melting point. Input compound: CC1=C(c2ccccc2)C(=O)N(C(C)(C)C(=O)c2cc(F)cc(F)c2)CO1 157 to 158 °C

Given CCc1c[nH]c(-c2ccc3c(c2)N(C(C)CN2CCCC2)c2ccccc2S3)n1 (racemic) , respond with its melting point. 197 °C

Query melting point for CCCCCOC(=O)n1c(N)nc(C#N)c1C#N 166 to 169 °C

Specify melting point for Cc1csc2ccc(C3CCN(Cl)CC3)cc12 and stop. 57 to 61.5 °C

Please look at this compound and report its melting point: CC1(O)CC(=O)OC(CCc2ccc(O)cc2)C1 (stereo unspecified) 135 to 137 °C

Supply measured melting point of COc1ccc(/C=C\c2ccc(OC)c(OC)c2OC)cc1 in your reply. 55 to 57 °C

Determine its reported melting point: COc1ccc2c(c1)OCC(/C=C/C=C/C=C/C(=O)O)=C2 238 to 240 °C

Find the measured melting point of Fc1ccc(-c2nn3c(c2-c2ccncc2)NNCC3)cc1 and report it. 233 to 235 °C

Recall and state the measured melting point for CCCC[C@@H](C)C[C@@H](CC(=O)OC(C)(C)C)C(=O)O . 142 to 143 °C

Supply measured melting point of CCCCC/C(=C\C=C\C(=O)Oc1ccc([N+](=O)[O-])cc1)c1ccc(OC)cc1 in your reply. 46 to 47 °C

Respond only with melting point recorded for CC(/C=C/n1ncc(-c2ccc(S(N)(=O)=O)cc2)c(-c2ccc(F)cc2)c1=O)C(F)(F)F (stereo unspecified) 155 to 157 °C

Look up melting point of Nc1ncc(-c2ccc3c(c2)CCC(NCC(F)(F)F)CC3)c(N)n1 (stereo unspecified) and report it. 154 to 156 °C

Please give the documented melting point of Cc1ccn2c(-c3ccnc(-c4ccc(CN5CCOCC5)cc4)c3)c(-c3cccc(C)n3)nc2c1 188 °C

For the compound CC1CCN(C(=O)[C@H]2CC=CC[C@@H]2NC(=O)C(F)(F)F)CC1 , report melting point. 169 to 170 °C

Return melting point for the following compound: O=C(O)C(=O)c1ccc(OCc2ccccc2)cc1 97 to 98 °C

----------
Below: a set of entries, each annotated with reported melting point.

Some solved entries appear below for comparison.
- c1ccc(CC[C@H]2CN(C3=Nc4ccccc4Sc4ccccc43)CCN2)cc1: 48 to 59 °C
- Cc1ccc(-c2nc(-c3nn(Cc4ccccc4F)c4ncccc34)ncc2C#N)cc1: 229 °C
- CC(=O)OC1CSC(Oc2cncc(-c3ccoc3)c2)C(OC(C)=O)C1OC(C)=O (stereo unspecified): 127 °C
- OCc1ccc(-c2cccc(C(F)(F)F)c2)o1: 45 °C
- C=CCn1c(C)nc2c1CCCC2=O: 78 °C
- Cc1cccc(-c2[nH]nc(C(F)(F)F)c2-c2ccncc2)c1: 237 to 239 °C

Give the reported melting point for this compound. CSc1ccc(COc2cccc(C(=O)Nc3ccc(C#N)cc3)c2)cc1 147 to 148 °C

For CCOc1nn(Cc2ccc(OCc3cccnc3)c(OC)c2)cc1CCC(=O)O , write its melting point. 124 to 125 °C

----------
Listed next: entries and their corresponding melting point.

Examples with their reported melting point follow.
- CC(=O)OCC(=O)C1=CCC2C3CCC4=CC(=O)C=CC4(C)C3(F)C(O)CC12C (centres undefined): 223 to 225 °C
- NC(=O)c1sc2nc(N3CCC(NCC(O)c4ccccc4F)CC3)cc(C(F)(F)F)c2c1N (centres undefined): 192 to 194 °C
- COC(=O)c1cc(C(=O)CBr)c(OC(C)=O)cc1NC(=O)C(F)(F)F: 260 to 261 °C
- O=C(O)CCCCCCCNS(=O)(=O)c1ccc(Cl)cc1: 122 to 124 °C

Look up melting point of O=C1CN(c2ccc(Cc3ccccc3)cc2)C(=S)N1c1ccc([N+](=O)[O-])cc1 and report it. 209 °C

Respond only with melting point recorded for CCCCOc1ccc(S(C)(=O)=O)cc1C(=O)Nc1c(C(N)=O)nn(CCN2CCOCC2)c1CC 182 to 185 °C

Give the measured melting point for O=C(NCc1ccc(Cl)cc1)c1cnc2c(C(F)(F)F)cc(CCCO)cc2c1O 249 to 250 °C

In one line, give reported melting point of the entry CCOC(=O)CCc1cc2cc(O)ccc2s1 . 111 to 113 °C

Return melting point for the following compound: COc1cc2c(c(OC)c1OC)CCC(Br)C2=O (centres undefined) 107 to 108 °C

Hello, please tell me recorded melting point for this one: Cc1ccc(-c2c(C(=O)NCc3cc(C(F)(F)F)cc(C(F)(F)F)c3)n(C[C@H](C)CO)c(=O)c3ncccc23)cc1 123 to 125 °C

Give reported melting point value for COc1cc2ncc(C#N)c(Nc3cccc(CSC(C)=O)c3)c2cc1OC 172 to 177 °C

Give melting point for O=C(NS(=O)(=O)Cl)Oc1c(-c2ccccc2)cccc1-c1ccccc1 159 to 162 °C

Tell us which melting point value is on record for COc1cc(-n2cnc3cc(-c4ccc(Cl)cc4)sc3c2=O)ccc1OCCN1CCCC1 214 to 215 °C

Answer with the recorded melting point of Cc1c(-c2ccccc2)n(-c2ccc(F)cc2)c(-c2ccccc2)cc1=O only. 256 to 259 °C

Entry O=[N+]([O-])c1ccc2[nH]cc(CCCO)c2c1 needs its melting point filled in; supply it. 107 to 110 °C

Provide one value: measured melting point of CN1C(=O)C(NC(=O)Nc2cccc3ccccc23)N=C(c2ccccc2)c2ccccc21 (centres undefined) 234 to 235 °C

Fill in reported melting point for this entry: CC(=O)c1ccc(OCc2ccccc2)c(CS(C)(=O)=O)c1 94 to 97 °C

Note down melting point recorded for CC(=O)N[C@H]1C(n2cc(Cl)cnc2=O)O[C@H](CO)[C@@H](O)[C@@H]1O (some centres undefined) 156 to 158 °C

Recall and state the measured melting point for CCNC1=C(c2ccc(OC)cc2)C(=O)c2cc(OC)ccc21 . 88 to 90 °C

Where these numbers come from: a melting point compilation (Tetko et al.; mined from patent text by program, amines drawn as free bases though some values may be those of a salt)
